- Tested on: P388 leukemia ip, CD2F1 mice, survival T/C
- TEST: NCI In Vivo Anticancer Drug Screen. Data for tumor model P388 Leukemia (intraperitoneal) in CD2F1 (CDF1) mice
- CONDITION_DETAILS: endpoint: median survival time; dose: 25.0 mg/kg/injection; schedule: Q01DX005 (ip); vehicle: saline with Tween-80; higher = longer survival
Inconclusive results and toxic doses are left out.
EXPERIMENTAL_ENDPOINT: T/C

Illustrative cases are given below, each with its answer.
- COMPOUND: "O=C1c2cccc3cc([N+](=O)[O-])cc(c23)C(=O)N1Cc1cccnc1"
  T/C: "92 % of control"
- COMPOUND: "CNC(=O)OCc1nc(SC)n(Cc2ccccc2)c1COC(=O)NC"
  T/C: "110 % of control"
- COMPOUND: "COc1cc(C)c(OC)c(CC=C(C)CC(=O)C[C@@]2(C)CCC[C@@]2(C)C(=O)CCC(C)(C)O)c1 (mixture of isomers)"
  T/C: "93 % of control"
- COMPOUND: "Clc1ccc2c(NCCCCCCNc3ccnc4cc(Cl)ccc34)ccnc2c1"
  T/C: "99 % of control"
- COMPOUND: "Clc1ccc(CCNCc2ccc(Cl)cc2)cc1"
  T/C: "97 % of control"

The compound listed as Cc1cc(N=Nc2ccc(-c3ccc(N=Nc4ccc(O)c(C(=O)O)c4)cc3)cc2)c(N)c(N=Nc2ccc(C(=O)Nc3ccc(S(=O)(=O)O)cc3)cc2)c1N shows T/C equal to 101 % of control

Given item COC(=O)C(CCCCNC(=O)OCc1ccccc1)NC(=O)C(CCCCNC(=O)OCc1ccccc1)NC(=O)OC(C)(C)C (stereo not drawn) , the value recorded as its T/C is 97 % of control

// T/C lookup, compound = Cn1c(COc2ccc(/C=N/Nc3ccnc(N/N=C/c4ccc(OCc5c[n+]6ccccc6n5C)cc4)n3)cc2)c[n+]2ccccc12 , result: 106 % of control

----------
Each record here notes measured T/C.
- Test system: P388 leukemia ip, CD2F1 mice, survival T/C
- TEST: NCI In Vivo Anticancer Drug Screen. Data for tumor model P388 Leukemia (intraperitoneal) in CD2F1 (CDF1) mice
- CONDITION_DETAILS: endpoint: median survival time; dose: 100.0 mg/kg/injection; schedule: Q01DX005 (ip); vehicle: Klucel (hydroxypropylcellulose) (HPC); higher = longer survival
Inconclusive results and toxic doses are left out.

As a guide, the following entries are already answered.
- MOLECULE: "NC1=NN(S(=O)(=O)c2ccccc2)CC1"
  T/C: "99 % of control"
- MOLECULE: "CC1(C)CC(NCCO)=CC(=S)N1"
  T/C: "101 % of control"
- MOLECULE: "Cc1ccnc(NS(=O)(=O)c2ccc(NC(=O)Nc3cccc(Cl)c3)cc2)n1"
  T/C: "87 % of control"
- MOLECULE: "Nc1ccc(O)c(=O)cc1"
  T/C: "95 % of control"
- MOLECULE: "CCOC(=O)CNC(=O)C(CSSCC(NC(=O)OCc1ccccc1)C(=O)OC)NC(=O)C(NC(=O)OCc1ccccc1)C(C)C (stereo not drawn)"
  T/C: "98 % of control"
- MOLECULE: "Cc1nn(-c2ccccc2)nc1CCl"
  T/C: "99 % of control"

Note to self: T/C recorded for CC1S(=O)(=O)O[Si](C)(C)CC[Si](C)(C)OS1(=O)=O was 100 % of control

Entry under test: C[C@]12C=CC(=O)C=C1CC[C@@H]1[C@@H]2C(=O)C[C@@]2(C)[C@H]1CC[C@]2(O)C(=O)COC(=O)CSc1c2ccccc2nc2ccccc12 . Its T/C was 107 % of control

The molecule identified as CCN1C(=O)NC(=O)C(CC)(N2CCCCC2)C1=O (stereo not drawn) registered its T/C at 98 % of control

Given item O=C(C#Cc1ccccc1)C1=Cc2ccccc2OC1 , the value recorded as its T/C is 95 % of control

Record Cc1ccc(O)c(C(=NCCCCN=C(c2ccccc2)c2cc(C)ccc2O)c2ccccc2)c1 . Reported T/C: 94 % of control

Please fill in: T/C reported for CC(C(=O)O)c1cccc2c(=O)cc(-c3ccccc3)oc12 (stereo not drawn) = 87 % of control
